Kindly supply the reported cell viability values for the records listed here.
Tested on: OCI-AML2
Assay: cell viability relative to vehicle control; higher = less cytotoxic;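 also: after 48 h exposure read by CellTiter-Glo luminescence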
Settings: 10 µM; SRSF2 genotype: wt/wt
Counter-ions that a name gives are not always drawn.
Write the answer as a number in %, unit excluded.

[in] OCI-AML2 / cell viability / CCN1C[C@]2(COC)CC[C@H](OC)[C@]34C1[C@H](C[C@H]23)[C@@]1(O)C[C@H](OC)[C@H]2C[C@@H]4[C@@H]1[C@H]2O [Talatisamine] : value?
[out] 107

[in] Then CN1C(=O)COc2c(C(=O)NC3CN4CCC3CC4)cc(Cl)cc21 (stereo unspecified) [Azasetron HCl] ?
[out] 94.7

[in] Then CCC(COC(=O)c1cc(OC)c(OC)c(OC)c1)(c1ccccc1)N(C)C (stereo unspecified) [Trimebutine] ?
[out] 97.8

[in] Then COc1cc2c(cc1OC)C(Cc1ccc(O)c(Oc3cc4c(cc3OC)CCN(C)C4Cc3ccc(O)cc3)c1)N(C)CC2.[O-][Cl+3]([O-])([O-])O (stereo unspecified) [Liensinine diperchlorate] ?
[out] 63.7

[in] Then O=C([O-])C(Cl)Cl.[Na+] [Sodium dichloroacetate (DCA)] ?
[out] 101

[in] Then COc1ccc(N(C(=O)Oc2c(C)cccc2C)c2ccnc(Nc3ccc(N4CCN(C)CC4)cc3)n2)c(OC)c1 ?
[out] 28.6

---

Test system: OCI-AML2
Test: cell viability relative to vehicle control; higher = less cytotoxic
Details: 10 µM; SRSF2 genotype: wt/wt
Where a name gives a salt, the structure may show the parent alone.
quantity-kind: cell viability (%)
Write the answer as a number in %, unit excluded.

[in] Fill in: cell viability of Cc1c(N[C@@H](c2nnc(-c3ccc(C#N)cc3)o2)[C@H](C)O)ccc(C#N)c1Cl is ___
[out] 102

[in] Then CCC1(c2cccc(O)c2)CCCCN(C)C1 (centres undefined) [Meptazinol HCl] ?
[out] 92.4

[in] Then CC(C)N(CCNC(=O)CN1CCCC1=O)C(C)C ?
[out] 105

[in] Then CN(C)C(=O)Oc1ccc[n+](C)c1 [Pyridostigmine Bromide (Mestinon)] ?
[out] 97

[in] Then COC1=C[C@@H]2[C@@H]3Cc4ccc(OC)c(O)c4[C@]2(CCN3C)CC1=O [Sinomenine hydrochloride] ?
[out] 109

[in] Then Cc1cccc([C@H](C)c2c[nH]cn2)c1C [Dexmedetomidine] ?
[out] 95.9

[in] Then CCO[C@H]1O[C@@H]2O[C@@]3(C)CC[C@H]4[C@H](C)CC[C@@H]([C@H]1C)[C@@]24OO3 ?
[out] 52.5

[in] Then CN(C)Cc1c[nH]c2ccccc12 ?
[out] 98.9

[in] Then CCCCC(C#N)(Cn1cncn1)c1ccc(Cl)cc1 (centres undefined) ?
[out] 98.1

---

Kindly supply the reported cell viability values for the records listed here.
System: MOLM14
Experiment: cell viability relative to vehicle control; higher = less cytotoxic
Settings: 10 µM; SRSF2 genotype: SRSF2 wt/wt
Write the answer as a number in %, unit excluded.

[in] Fill in: cell viability of CCNc1nc(Cl)nc(NC(C)C)n1 is ___
[out] 97

[in] Then CN1C2CC(O)CC1C1OC12 (stereo unspecified) ?
[out] 100

[in] Then COc1cc(-n2c(=S)[nH]c3ccccc3c2=O)c(Cl)cc1Cl ?
[out] 102

[in] Then C=C1C[C@@H]2[C@H](CC[C@]3(C)C(=O)CC[C@@H]23)[C@@]2(C)C=CC(=O)C=C12 ?
[out] 94.3

[in] Then O=c1ccc2ccc3occc3c2o1 ?
[out] 110

[in] Then NC(=O)CN1CC(c2ccccc2)CC1=O (stereo unspecified) ?
[out] 98.1

---

Kindly supply the reported cell viability values for the records listed here.
Tested on: MARIMO
Experiment: cell viability relative to vehicle control; higher = less cytotoxic
Settings: 10 µM; SRSF2 genotype: SRSF2 wt/wt
Counter-ions that a name gives are not always drawn.
Write the answer as a number in %, unit excluded.

[in] Fill in: cell viability of CN1C(=O)COc2c(C(=O)NC3CN4CCC3CC4)cc(Cl)cc21 (stereo not drawn) [Azasetron HCl] is ___
[out] 98.7

[in] Then COc1ccc(C(=O)N2CCCC2=O)cc1 [Aniracetam] ?
[out] 109

[in] Then CN(C)CCc1ccc(O)cc1 [Hordenine] ?
[out] 106

[in] Then C[C@@]12N[C@@H](Cc3ccccc31)c1ccccc12 [(-)-MK 801 maleate] ?
[out] 100

[in] Then COc1cc2c(cc1OC)C(Cc1ccc(O)c(Oc3cc4c(cc3OC)CCN(C)C4Cc3ccc(O)cc3)c1)N(C)CC2.[O-][Cl+3]([O-])([O-])O (stereo not drawn) [Liensinine diperchlorate] ?
[out] 76.3

[in] Then CC(=O)O[C@H]1CC[C@H]2[C@@H]3CCC4=CC(=O)CCC4=C3C=C[C@]12C [Trenbolone acetate] ?
[out] 96

[in] Then Fc1cc(F)c2c(c1)[C@H]1C=CC[C@H]1C(c1cccnc1)N2 (stereo partly drawn) [Golgicide A] ?
[out] 27.5

[in] Then CC1(C)C(=O)N(c2ccc(C#N)c(C(F)(F)F)c2)C(=O)N1CCCCO ?
[out] 103

[in] Then CCN1CC2(OC(=O)c3ccccc3NC(C)=O)CCC(OC)C34C1C(CC23)C1(O)CC(OC)C2CC4C1(O)C2OC (stereo not drawn) [Lappaconite Hydrobromide] ?
[out] 96.2

[in] Then O=C(O[C@H]1C[C@H]2CC[C@@H](C1)[N+]21CCCC1)C(O)(c1ccccc1)c1ccccc1 [Trospium chloride (Sanctura)] ?
[out] 102

[in] Then COc1cc(OC)c(OC)cc1C=O [Asaraldehyde (Asaronaldehyde)] ?
[out] 114

[in] Then CC(C)(C)c1cc(C=C(C#N)C#N)cc(C(C)(C)C)c1O [Tyrphostin 9 (SF 6847)] ?
[out] 23.8

[in] Then O=C(NCC1CCOCC1)c1cnc(Nc2ccc(Cl)cc2Cl)nc1C(F)(F)F ?
[out] 104

[in] Then O=c1ccc2cc(O[C@@H]3O[C@H](CO)[C@@H](O)[C@H](O)[C@H]3O)c(O)cc2o1 [Aesculin (Esculin)] ?
[out] 97.7

[in] Then Nc1ncnc2c1ccn2[C@@H]1O[C@H]([C@H](O)c2ccccc2)[C@@H](O)[C@H]1O ?
[out] 95.3

[in] Then O=C([O-])C(Cl)Cl.[Na+] [Sodium dichloroacetate (DCA)] ?
[out] 104

[in] Then O=C1C=CC[C@@H]2[C@H]3CCCN4CCC[C@@H](CN12)[C@@H]34 [Sophocarpine] ?
[out] 111

[in] Then C[C@H]1CC(=O)C[C@@H]2CC[C@H]3[C@@H]4CC[C@H](O)[C@@]4(C)CC[C@@H]3[C@]21C [Mesterolone] ?
[out] 82.2

[in] Then CN1[C@@H]2CC[C@H]1C[C@@H](OC(=O)C(CO)c1ccccc1)C2 (stereo partly drawn) [Atropine sulfate] ?
[out] 112

[in] Then O=c1cccc2n1C[C@@H]1CNC[C@H]2C1 [Cytisine] ?
[out] 107

[in] Then O=C/C=C/c1ccccc1 [Cinnamaldehyde] ?
[out] 95.3

[in] Then C=CC(=C)C [Isoprene] ?
[out] 106

[in] Then C=C[C@H]1CN2CC[C@@]3(C(=O)Nc4ccccc43)[C@@H]2C[C@@H]1/C(=C\OC)C(=O)OC [Isocorynoxeine] ?
[out] 72.7

[in] Then COc1cc2c(cc1O)C[C@H]1c3c(cc(O)c(OC)c3-2)CCN1C [Boldine] ?
[out] 88.6

[in] Then C[C@]12CC[C@H]3[C@@H](CCC4=CC(=O)C=C[C@@]43C)[C@@H]1CC[C@@H]2O [Boldenone] ?
[out] 104

[in] Then CCN1C[C@]2(COC)CC[C@H](OC)[C@]34C1[C@H](C[C@H]23)[C@@]1(O)C[C@H](OC)[C@H]2C[C@@H]4[C@@H]1[C@H]2O [Talatisamine] ?
[out] 108

[in] Then CC(=O)Nc1ccc(Cc2ccc(NC(C)=O)cc2)cc1 ?
[out] 106

[in] Then COc1ccc(C(CN(C)C)C2(O)CCCCC2)cc1 (stereo not drawn) [Venlafaxine HCl] ?
[out] 99.7

[in] Then CC(=O)O[C@H]1C(=O)[C@@]2(C)[C@H]([C@H](OC(=O)c3ccccc3)[C@]3(O)C[C@H](O)C(C)=C1C3(C)C)[C@]1(OC(C)=O)CO[C@@H]1C[C@@H]2O ?
[out] 96.6

[in] Then C/C(=C\c1csc(C)n1)[C@@H]1C[C@@H]2O[C@@H]2CCC[C@H](C)[C@H](O)[C@@H](C)C(=O)C(C)(C)[C@@H](O)CC(=O)O1 [Epothilone A] ?
[out] 5.2

[in] Then CC1=C[C@@H]2C(=O)[C@]3(C=C(C)[C@H](O)[C@@]3(O)[C@@H]1O)[C@H](C)C[C@@H]1[C@H]2C1(C)C [20-Deoxyingenol] ?
[out] 100

[in] Then COC1=C[C@@H]2[C@@H]3Cc4ccc(OC)c(O)c4[C@]2(CCN3C)CC1=O [Sinomenine (Cucoline)] ?
[out] 96.2

[in] Then CN1CCCCC1Cn1cc(C(=O)c2cc([N+](=O)[O-])ccc2I)c2ccccc21 (stereo not drawn) ?
[out] 103
